Recorded IC50, one value per entry.
SYSTEM UNDER TEST: MERTK (Homo sapiens)
Sequence (Q12866 21-999): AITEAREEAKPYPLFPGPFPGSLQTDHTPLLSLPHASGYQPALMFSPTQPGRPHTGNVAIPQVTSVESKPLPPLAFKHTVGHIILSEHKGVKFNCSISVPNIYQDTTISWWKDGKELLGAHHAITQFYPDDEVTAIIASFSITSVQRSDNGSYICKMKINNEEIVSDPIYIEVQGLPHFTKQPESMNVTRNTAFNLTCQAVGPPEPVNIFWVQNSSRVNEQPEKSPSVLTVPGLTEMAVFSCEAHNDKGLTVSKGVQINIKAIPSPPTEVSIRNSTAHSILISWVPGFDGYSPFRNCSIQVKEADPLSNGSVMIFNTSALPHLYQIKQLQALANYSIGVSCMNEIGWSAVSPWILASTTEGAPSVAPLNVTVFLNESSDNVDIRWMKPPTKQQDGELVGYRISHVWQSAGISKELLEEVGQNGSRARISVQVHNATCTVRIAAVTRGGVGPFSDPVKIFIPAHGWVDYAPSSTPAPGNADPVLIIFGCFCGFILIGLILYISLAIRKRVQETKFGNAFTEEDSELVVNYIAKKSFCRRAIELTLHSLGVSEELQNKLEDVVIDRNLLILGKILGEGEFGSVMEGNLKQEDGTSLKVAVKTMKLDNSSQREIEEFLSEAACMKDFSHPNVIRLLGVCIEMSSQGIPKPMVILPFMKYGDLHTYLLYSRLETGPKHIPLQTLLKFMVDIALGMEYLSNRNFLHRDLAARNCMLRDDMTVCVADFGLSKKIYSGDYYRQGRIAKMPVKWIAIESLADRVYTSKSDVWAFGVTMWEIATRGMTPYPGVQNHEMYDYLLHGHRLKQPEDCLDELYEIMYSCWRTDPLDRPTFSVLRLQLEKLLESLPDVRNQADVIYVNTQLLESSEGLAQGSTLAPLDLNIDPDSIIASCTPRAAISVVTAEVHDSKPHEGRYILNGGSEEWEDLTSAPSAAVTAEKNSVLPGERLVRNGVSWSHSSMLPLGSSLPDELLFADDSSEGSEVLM

{"COMPOUND": "COC[C@H](C)Nc1ncc2c(OC3CCOCC3)ncc(-c3cnn([C@@H]4CCN(C)C4)c3)c2n1", "PROPERTY": "IC50", "VALUE REPORTED": "100 to 1000 nM"}
{"COMPOUND": "C[C@@H](CC(F)(F)F)Nc1ncc2c(O[C@@H]3C[C@H]4CC[C@@H](C3)N4C[C@@H]3CCOC3)ncc([C@H]3CC[C@H](O)CC3)c2n1", "PROPERTY": "IC50", "VALUE REPORTED": "≤ 100 nM"}
{"COMPOUND": "CCOc1ncc(CC2CCN(C(=O)OC(C)(C)C)CC2)c2nc(N[C@@H](C)CC)ncc12", "PROPERTY": "IC50", "VALUE REPORTED": "1000 to 10000 nM"}
{"COMPOUND": "COC[C@H](C)Nc1ncc2c(OC3CC(C)(C)N(C(C)=O)C(C)(C)C3)ncc([C@H]3CC[C@H](O)CC3)c2n1", "PROPERTY": "IC50", "VALUE REPORTED": "≤ 100 nM"}
{"COMPOUND": "CC[C@H](C)Nc1ncc2c(O[C@H]3CC[C@H](N(C)C)C3)ncc([C@H]3CC[C@H](O)CC3)c2n1", "PROPERTY": "IC50", "VALUE REPORTED": "≤ 100 nM"}

Query: IC50; subject: CCCC(C)Nc1ncc2c(OC3CCN(S(C)(=O)=O)CC3)ncc([C@H]3CC[C@H](O)CC3)c2n1 (some centres unmarked)
≤ 100 nM

Query: IC50; subject: CCCC(C)Nc1ncc2c(N3CCC[C@H](N(C)C)C3)ncc([C@H]3CC[C@H](O)CC3)c2n1 (some centres unmarked)
≤ 100 nM

Query: IC50; subject: O[C@H]1CC[C@H](c2cnc(OC3CCNCC3)c3cnc(Nc4cccc(Cl)c4)nc32)CC1
≤ 100 nM

Query: IC50; subject: COC[C@H](C)Nc1ncc2c(OC3CCOCC3)ncc([C@H]3CC[C@H](NC(C)=O)CC3)c2n1
≤ 100 nM

Query: IC50; subject: CCCC(C)Nc1ncc2c(O[C@H]3C[C@@H](O)C3)ncc([C@H]3CC[C@H](O)CC3)c2n1 (some centres unmarked)
≤ 100 nM

Query: IC50; subject: COCC(C)Nc1ncc2c(=O)n(C3CCN(C)CC3)cc([C@H]3CC[C@H](O)CC3)c2n1 (some centres unmarked)
100 to 1000 nM

Query: IC50; subject: CC[C@H](C)Nc1ncc2c(OC(CO)CO)ncc([C@H]3CC[C@H](O)CC3)c2n1
100 to 1000 nM

Query: IC50; subject: COC[C@H](C)Nc1ncc2c(OC3C[C@@H](C)N(C)[C@H](C)C3)ncc([C@H]3CC[C@H](O)CC3)c2n1 (some centres unmarked)
≤ 100 nM

Query: IC50; subject: CC[C@H](C)Nc1ncc2c(=O)n(CC34CCC(O)(CC3)CC4)cc([C@H]3CC[C@H](O)CC3)c2n1
≤ 100 nM

Query: IC50; subject: C[C@@H](CC(F)(F)F)Nc1ncc2c(OC3CCN([C@@H]4CCOC4)CC3)ncc([C@H]3CC[C@H](O)CC3)c2n1
≤ 100 nM

Query: IC50; subject: CCOc1ncc([C@H]2CC[C@H](O)CC2)c2nc(N[C@@H](C)CC)ncc12
≤ 100 nM

Query: IC50; subject: COC[C@H](C)Nc1ncc2c(OC3C[C@H]4CC[C@@H](C3)N4C)ncc([C@H]3CC[C@H](O)CC3)c2n1 (some centres unmarked)
≤ 100 nM

Query: IC50; subject: CC[C@H](C)Nc1ncc2c(OC3C[C@@H](C)O[C@@H](C)C3)ncc([C@H]3CC[C@H](O)CC3)c2n1 (some centres unmarked)
100 to 1000 nM

Query: IC50; subject: CC[C@H](C)Nc1ncc2c(C)ncc([C@H]3CC[C@H](O)CC3)c2n1
≤ 100 nM

Query: IC50; subject: COC[C@H](C)Nc1ncc2c(OC3CCOCC3)ncc([C@H]3CC[C@](C)(O)CC3)c2n1
≤ 100 nM

Query: IC50; subject: O[C@H]1CC[C@H](c2cnc(OC3CCNCC3)c3cnc(Nc4cccc(F)c4)nc32)CC1
≤ 100 nM

Query: IC50; subject: CCCCC[C@H](C)Nc1ncc2c(OC3CCNCC3)ncc([C@H]3CC[C@H](O)CC3)c2n1
≤ 100 nM

Query: IC50; subject: CCCC(C)Nc1ncc2c(=O)n(C3CCN(S(C)(=O)=O)CC3)cc([C@H]3CC[C@@H](O)CC3)c2n1 (some centres unmarked)
≤ 100 nM

Query: IC50; subject: CC[C@H](C)Nc1ncc2c(=O)n(C[C@H]3COCCN3C)cc([C@H]3CC[C@H](O)CC3)c2n1
≤ 100 nM

Query: IC50; subject: O=C(O)[C@H]1CC[C@H](Nc2ncc3c(OC4CCOCC4)ncc([C@H]4CC[C@H](O)CC4)c3n2)CC1
≤ 100 nM

Query: IC50; subject: CN1C[C@H](Nc2ncc3c(OC4CCOCC4)ncc([C@H]4CC[C@H](O)CC4)c3n2)CC1=O
≤ 100 nM

Query: IC50; subject: COCC(COC)Nc1ncc2c(=O)n(C3CCNCC3)cc([C@H]3CC[C@H](O)CC3)c2n1
1000 to 10000 nM

Query: IC50; subject: COC[C@H](C)Nc1ncc2c(OC3CCOCC3)ncc(-c3cccc(C#N)c3)c2n1
100 to 1000 nM

Query: IC50; subject: CCCC(C)Nc1ncc2c(O[C@@H]3C[C@H]4CC[C@@H](C3)O4)ncc([C@H]3CC[C@H](O)CC3)c2n1 (some centres unmarked)
≤ 100 nM

---

Recorded pIC50, one value per entry.
SYSTEM UNDER TEST: FLT3 (Homo sapiens, UniProt P36888)
Sequence (P36888 27-993): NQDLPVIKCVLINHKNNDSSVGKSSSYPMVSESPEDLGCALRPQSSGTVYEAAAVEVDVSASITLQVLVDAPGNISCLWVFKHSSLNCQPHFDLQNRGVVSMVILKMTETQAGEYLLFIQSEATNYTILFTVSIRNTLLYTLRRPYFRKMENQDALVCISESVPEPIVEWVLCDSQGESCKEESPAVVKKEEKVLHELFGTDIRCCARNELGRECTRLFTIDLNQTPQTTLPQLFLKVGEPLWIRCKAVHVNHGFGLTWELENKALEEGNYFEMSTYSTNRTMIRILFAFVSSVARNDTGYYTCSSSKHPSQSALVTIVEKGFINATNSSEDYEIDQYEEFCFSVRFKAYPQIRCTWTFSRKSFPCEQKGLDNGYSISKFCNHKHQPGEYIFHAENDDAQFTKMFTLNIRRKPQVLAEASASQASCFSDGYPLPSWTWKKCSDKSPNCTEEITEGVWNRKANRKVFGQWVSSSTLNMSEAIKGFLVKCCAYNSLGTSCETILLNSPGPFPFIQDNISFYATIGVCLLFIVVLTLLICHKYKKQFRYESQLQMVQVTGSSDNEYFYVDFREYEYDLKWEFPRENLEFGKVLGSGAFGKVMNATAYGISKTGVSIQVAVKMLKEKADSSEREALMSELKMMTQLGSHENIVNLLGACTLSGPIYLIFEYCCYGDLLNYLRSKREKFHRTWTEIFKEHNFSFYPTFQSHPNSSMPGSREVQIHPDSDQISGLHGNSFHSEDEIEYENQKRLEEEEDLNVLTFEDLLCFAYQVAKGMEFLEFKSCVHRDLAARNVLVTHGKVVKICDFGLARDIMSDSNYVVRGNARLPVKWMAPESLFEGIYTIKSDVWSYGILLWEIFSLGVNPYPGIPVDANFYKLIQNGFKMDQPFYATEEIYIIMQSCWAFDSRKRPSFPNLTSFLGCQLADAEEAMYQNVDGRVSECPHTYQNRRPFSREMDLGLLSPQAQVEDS
pIC50: −log10 of the molar value.

Query: pIC50; subject: COC[C@H](C)Nc1ncc2c(OC3CCOCC3)ncc(-c3ccc(N)cc3)c2n1
5.00 to 6.00
